biological target: HLA-A*69:01; assay: IEDB peptide-MHC binding, purified MHC/direct/fluorescence; filed as Kd, often an IC50 or EC50 that approximates it; bounds were set here for any values at or beyond the usual limits of such assays; conditions: source organism: Coxiella burnetii
pKd: −log10 of the molar value.
READOUT KIND: pKd

## Task Recall the recorded pKd for "SYGNANVSF" with HLA-A*69:01 and state it.
## Result ≤ 4.70

----------
target: HLA-B*58:01; experiment: IEDB peptide-MHC binding, purified MHC/direct/fluorescence; filed as Kd, often an IC50 or EC50 that approximates it; bounds were set here for any values at or beyond the usual limits of such assays; conditions: source organism: Influenza A virus (A/WSN/1933(H1N1))
pKd: −log10 of the molar value.
READOUT KIND: pKd

## Task Value lookup for pKd; key = "NLEPGTFDL"
## Result ≤ 4.70

----------
target: HLA-B*15:01; experiment: IEDB peptide-MHC binding, purified MHC/competitive/fluorescence; filed as Kd, often an IC50 or EC50 that approximates it; bounds were set here for any values at or beyond the usual limits of such assays; details: source organism: Human immunodeficiency virus 1
READOUT KIND: Kd (nM)
Give bare numbers, in nM.

## Task For the sequence shown here, "LGLNKIVRMY" , give the reported Kd.
## Result 1960

----------
target: HLA-A*03:01; assay: IEDB peptide-MHC binding, purified MHC/competitive/radioactivity; filed as Kd, often an IC50 or EC50 that approximates it; bounds were set here for any values at or beyond the usual limits of such assays; settings: source organism: Vaccinia virus WR
READOUT KIND: Kd (nM)
One number for each entry, in nM.

Previously resolved entries follow.
INSERT INTO assay_data (primary_sequence, readout_kind, unit_symbol, reported_measurement) VALUES
  ('YQSFLFWFLK', 'Kd', 'nM', 20.6),
  ('SISSVLTILY', 'Kd', 'nM', 206),
  ('IASKINNNR', 'Kd', 'nM', 13200),
  ('CAMPYNILDR', 'Kd', 'nM', 7240),
  ('SLNRQTVSR', 'Kd', 'nM', 67.1);

Give me Kd for each of these sequences, listed below.
1. MSHLKVALY
2. HTSVSAKQLR
3. ILKINSVKYY
4. RSLQTIASKK

## Result
[320, 2510, 17200, 50.3]

----------
molecular target: HLA-B*46:01; assay: IEDB peptide-MHC binding, purified MHC/competitive/fluorescence; filed as Kd, often an IC50 or EC50 that approximates it; bounds were set here for any values at or beyond the usual limits of such assays; details: source organism: Vibrio antiquarius
pKd: −log10 of the molar value.
READOUT KIND: pKd

## Task Reported pKd for "SLTIPSFYT" : what is it?
## Result ≤ 4.70

----------
molecular target: HLA-A*31:01; assay: IEDB peptide-MHC binding, purified MHC/direct/fluorescence; filed as Kd, often an IC50 or EC50 that approximates it; bounds were set here for any values at or beyond the usual limits of such assays; conditions: source organism: Brucella abortus
READOUT KIND: Kd

## Task Which Kd reading was recorded for the sequence "EKPPVRPIF" ?
## Result ≥ 20 µM

----------
biological target: HLA-A*02:03; experiment: IEDB peptide-MHC binding, purified MHC/direct/fluorescence; filed as Kd, often an IC50 or EC50 that approximates it; bounds were set here for any values at or beyond the usual limits of such assays; conditions: source organism: Vibrio cholerae O395
READOUT KIND: Kd

## Task Given "VVSEIDLQW" , state its recorded Kd.
## Result ≥ 20 µM
